Tested on: Peronospora brassicae
Protocol details: Peronospora test (oilseed rape seeds)/seed treatment
Format: in vivo
Particulars: dose 50 g/dt, 14-day-old plants inoculated, incubated 7 days, infected leaf area, 100% = no disease
Give measured Eff. % for each item. Keep answers brief.
Only the number, expressed in %, is required.

Could you tell me which Eff. % is on file for Cc1cc(C(F)(F)F)nn1CC(=O)N1CCC(c2nc(C3=NOC(c4ccccc4OS(=O)(=O)C4CC4)C3)cs2)CC1 (stereo not shown) ?
90

Could you tell me which Eff. % is on file for O=C(Cn1nc(C(F)F)cc1C(F)F)N1CCC(c2nc(C3=NOC(c4ccccc4C=NO)C3)cs2)CC1 (mixture of isomers) ?
92

Could you tell me which Eff. % is on file for Cc1cc(C(F)(F)F)nn1CC(=O)N1CCC(c2nc(C3=NOC(c4ccccc4C=NO)C3)cs2)CC1 (mixture of isomers) ?
86

Could you tell me which Eff. % is on file for Cc1cc(C(F)(F)F)nn1CC(=O)N1CCC(c2nc(C3=NOC(c4ccccc4OS(C)(=O)=O)C3)cs2)CC1 (stereo not shown) ?
90

Could you tell me which Eff. % is on file for CS(=O)(=O)Oc1ccccc1C1CC(c2csc(C3CCN(C(=O)Cn4nc(C(F)F)cc4C(F)F)CC3)n2)=NO1 (stereo not shown) ?
100

Could you tell me which Eff. % is on file for CCS(=O)(=O)Oc1ccccc1C1CC(c2csc(C3CCN(C(=O)Cn4nc(C(F)F)cc4C(F)F)CC3)n2)=NO1 (stereo not shown) ?
90

Could you tell me which Eff. % is on file for CON=Cc1cccc(F)c1C1CC(c2csc(C3CCN(C(=O)Cn4nc(C(F)F)cc4C(F)F)CC3)n2)=NO1 (stereo not shown) ?
95
